# System: UACC-257 melanoma
# experiment: NCI tumour cell line growth inhibition, 48 h
Give measured TGI for each item. Keep answers brief.

compound	system_name	TGI
Cc1c(/C=C2\CC/C(=C\c3[nH]c(C(=O)OC(C)(C)C)c(C)c3C)C2=O)[nH]c(C(=O)OC(C)(C)C)c1C	UACC-257 melanoma	> 100 µM

Parameter requested: TGI. Apply to each item below.
1. CN(C)CCC1(C2=CCCC2)CC/C(=C\c2ccc3c(c2)OCO3)C1=O (stereo unspecified)
2. CC1=CC[C@@H]2[C@@H](CC[C@@]2(C)O)C(C)(C)[C@H]1CC[C@@H]1[C@@]2(C)CCC(=O)C(C)(C)O[C@@H]2CC[C@]1(C)O
3. CC(C)(C)c1nc2c(o1)C(=Nc1ccccc1)c1ccccc1C2=O
4. N=C(N)/N=C(/C=C/c1ccccc1)CC1OC(=O)c2ccccc21 (stereo unspecified)
5. CCOC(=O)C(NCc1ccccc1)(NC(=O)c1ccccc1)C(F)(F)F (stereo unspecified)

Return:
["29 µM", "> 100 µM", "4.45 µM", "> 100 µM", "> 100 µM"]

###

# System: NCI/ADR-RES ovarian
# experiment: NCI tumour cell line growth inhibition, 48 h
Give measured TGI for each item. Keep answers brief.
Numbers only, in µM.

molecule	assay_readout	value
O=C1N[C@H]2c3c(Cl)sc(Cl)c3C(=O)[C@H]2O1	TGI	37.2
Oc1c(OCc2nnc(CCCCCCCCc3nnc(COc4ccc5ccccc5c4O)n3Nc3ccccc3)n2Nc2ccccc2)ccc2ccccc12	TGI	42.6

Parameter requested: TGI. Apply to each item below.
1. O=C(CCSC(CC(=O)c1ccc(Cl)cc1)c1ccc(Cl)cc1)Nc1ccc(Cl)cc1 (stereo not given)
2. O=C(CC12CC3CC(CC(C3)C1)C2)NCCOCCOCCNC(=O)c1cc2c(o1)C(=O)c1ccccc1C2=O

Return:
40.2
5.87

###

# Test system: MCF7 breast
# experiment: NCI tumour cell line growth inhibition, 48 h
Give measured TGI for each item. Keep answers brief.

Worked cases, answers included:
compound	system_name	TGI
COC1=CC(c2ccc[nH]2)=N/C1=C\c1[nH]c(C)c(C(=O)CCC(=O)Oc2ccc3c(c2)CCC2C3CC[C@]3(C)C(=O)CC[C@@H]23)c1C (stereo not given in full)	MCF7 breast	> 49.3 µM
CN(C(=O)c1ccc(F)cc1C(F)(F)F)C1CCN(c2nnc(-c3ccnn3C)c3ccccc23)CC1	MCF7 breast	> 100 µM
COc1ccc(CN2C(=O)CCC/C=C\[C@H]2CI)cc1	MCF7 breast	22.5 µM
N#CI1OC(=O)c2ccccc21	MCF7 breast	> 100 µM

Here is another compound to look at.
Enquiry: May I ask what TGI has been recorded for COc1ccc(-c2cc3cccc(OC)c3c(=O)o2)cc1OC ?
Return: > 100 µM

###

Give measured GI50 for each item. Keep answers brief.
# Test system: DU-145 prostate
# experiment: NCI tumour cell line growth inhibition, 48 h

Worked cases, answers included:
In [3]: df
Out[3]:
                              record_smiles  assay_readout      value
0       O=C(c1ccccc1)c1ccc(-c2ccc(O)cc2)cc1           GI50    5.62 µM
1  O=C(CC12CC3CC(CC(C3)C1)C2)NCCOCCOCCNC(=O)c1cc2c(o1)C(=O)c1ccccc1C2=O           GI50   0.225 µM
2          Nc1ccccc1C#C/C=C\C#Cc1ccc(F)cc1F           GI50    12.5 µM
3  O=S(=O)(Nc1ccc(-c2nc(-c3cccc(OCCN4CCOCC4)c3)c(-c3ccnc(Br)c3)[nH]2)cc1)c1ccccc1           GI50    5.64 µM
4  CC1(C)CCC(S(=O)(=O)c2ccc3c(c2)/C(=N\O)c2cc(S(=O)(=O)N4CCC(O)(c5cccc(C(F)(F)F)c5)CC4)ccc2-3)CC1           GI50  0.0319 µM
5      CCOc1ccc(NC(=O)Nc2cc(C(C)C)ccc2C)cc1           GI50    9.57 µM
6         COc1ccc(OC)c(/C=C/[N+](=O)[O-])c1           GI50    2.57 µM
7  COc1ccc2c(c1)O/C(=C\c1cccc(OCC(=O)Nc3nc4ccccc4s3)c1)C2=O           GI50    3.57 µM

Here is another molecule to look at.
Enquiry: May I ask what GI50 has been recorded for COc1ccc(/C=C2/CN(C(=O)c3ccccc3F)C/C(=C\c3ccc(OC)cc3)C2=O)cc1 ?
Return: 7.47 µM

###

# Test system: CAKI-1 renal
# experiment: NCI tumour cell line growth inhibition, 48 h; in the data active = GI50 below about 0.43 µM; inactive = the rest
Can you answer with just one of these options? 1 (active), -1 (inactive)

molecule	category
Cc1ccc(NS(=O)(=O)c2ccc(-c3cnc(C4CC4)o3)cc2)cc1	-1
COc1ccc(-c2cc3cccc(OC)c3c(=O)o2)cc1OC	1
CCN(CC)c1ccc(NC(C(=O)c2ccccc2)c2ccccc2)cc1 (configuration not stated)	-1

Enquiry: What outcome does the record of this test show for Cn1ncc2c(Nc3ccc(Br)cc3)nc(Nc3ccc(Br)cc3)nc21 ?
Return: -1

Enquiry: What outcome does the record of this test show for O=C1OCC(c2ccc(O)c(O)c2)=C1c1cc(O)c(O)c(O)c1 ?
Return: -1

Enquiry: What outcome does the record of this test show for O=C1c2ccn(CCCCN3CCOCC3)c2C(=O)c2c1c(O)c1ccccc1c2O ?
Return: -1

Enquiry: What outcome does the record of this test show for CCCC[C@@H]1NC(=O)[C@H](CCCCN)NC(=O)[C@H](CCCNC(=N)N)NC(=O)[C@H](CC(C)C)NC(=O)[C@@H](NC(=O)[C@H](Cc2cccc(Cl)c2)NC(=O)[C@@H]2CCCN2C(=O)[C@@H](NC(C)=O)C(C)C)CCSSC[C@@H](C(=O)N[C@@H](CCCCN)C(=O)N2CCC[C@H]2C(=O)N2CCC[C@H]2C(=O)N[C@@H](CCC(=O)O)C(N)=O)NC(=O)[C@H](Cc2ccccc2)NC(=O)[C@H](CO)NC(=O)[C@H](C)NC(=O)[C@@H]2CCCN2C1=O ?
Return: -1

###

# Tested on: MOLT-4 leukemia
# experiment: NCI tumour cell line growth inhibition, 48 h
assay_readout: TGI (µM)
One number for each entry, in µM.

compound	system_name	TGI [µM]
c1ccc(COc2ccc(C[P+](c3ccccc3)(c3ccccc3)c3ccccc3)cc2)cc1	MOLT-4 leukemia	1.94

Parameter requested: TGI. Apply to each item below.
1. CC1=CC[C@@H]2[C@@H](CC[C@@]2(C)O)C(C)(C)[C@H]1CC[C@@H]1[C@@]2(C)CCC(=O)C(C)(C)O[C@@H]2CC[C@]1(C)O
2. CC(C)(C)C1CC[C@H]2c3c([nH]c4ccc(Br)cc34)[C@H]3C(=O)N(c4ccccc4)C(=O)[C@H]3[C@H]2C1 (some centres not stated)
3. O=C(CC12CC3CC(CC(C3)C1)C2)NCCOCCOCCNC(=O)c1cc2c(o1)C(=O)c1ccccc1C2=O
4. COC(=O)Cc1c([C@@H]2Nc3ccccc3[C@H]2CC(=O)OC)[nH]c2ccccc12
5. COc1cc2c(cc1O)[C@H](C)C(c1ccc(Cl)cc1)O2 (some centres not stated)

Return:
68.5
71.6
4.98
68.9
40.9

Parameter requested: TGI. Apply to each item below.
1. C[C@@H]1O[C@@H](O[C@H]2C[C@@H](O)[C@]3(CO)C4C(CC[C@]3(O)C2)[C@@]2(O)CC[C@H](C3=CC(=O)OC3)[C@@]2(C)C[C@H]4O)[C@H](O)[C@H](O)[C@H]1O (some centres not stated)
2. O=C(CCSC(CC(=O)c1ccc(Cl)cc1)c1ccc(Cl)cc1)Nc1ccc(Cl)cc1 (configuration not stated)
3. Nc1cc2c(cc1[N+](=O)[O-])[nH]c1c(-c3ccccc3)nccc12
4. CC(C)CN1CN(c2ccccc2)C2(CCN(CC(C)(c3ccc(F)cc3)C3OCCO3)CC2)C1=O (configuration not stated)

Return:
1: 0.0314; 2: 11.5; 3: 19.8; 4: 7.32

Parameter requested: TGI. Apply to each item below.
1. c1ccc2c(c1)O[As](O[As]1Oc3ccccc3O1)O2
2. CCC(=O)Sc1ccccc1C(=O)Nc1ccc(Cl)cc1
3. COCCNCC(O)Cn1c2ccc(Cl)cc2c2cc(Cl)ccc21 (configuration not stated)

Return:
1: 7.21; 2: 92.6; 3: 4.05

Parameter requested: TGI. Apply to each item below.
1. CC1(C)CCC(S(=O)(=O)c2ccc3c(c2)/C(=N\O)c2cc(S(=O)(=O)N4CCC(O)(c5cccc(C(F)(F)F)c5)CC4)ccc2-3)CC1
2. O=C1OCC(c2ccc(O)c(O)c2)=C1c1cc(O)c(O)c(O)c1

Return:
1: 0.0444; 2: 27.8

Entry source: PubChem BioAssay (NCI)
